# credit: paper PMC5148682

Target: Human topoisomerase I (Homo sapiens)
Sequence (P11387 1-765): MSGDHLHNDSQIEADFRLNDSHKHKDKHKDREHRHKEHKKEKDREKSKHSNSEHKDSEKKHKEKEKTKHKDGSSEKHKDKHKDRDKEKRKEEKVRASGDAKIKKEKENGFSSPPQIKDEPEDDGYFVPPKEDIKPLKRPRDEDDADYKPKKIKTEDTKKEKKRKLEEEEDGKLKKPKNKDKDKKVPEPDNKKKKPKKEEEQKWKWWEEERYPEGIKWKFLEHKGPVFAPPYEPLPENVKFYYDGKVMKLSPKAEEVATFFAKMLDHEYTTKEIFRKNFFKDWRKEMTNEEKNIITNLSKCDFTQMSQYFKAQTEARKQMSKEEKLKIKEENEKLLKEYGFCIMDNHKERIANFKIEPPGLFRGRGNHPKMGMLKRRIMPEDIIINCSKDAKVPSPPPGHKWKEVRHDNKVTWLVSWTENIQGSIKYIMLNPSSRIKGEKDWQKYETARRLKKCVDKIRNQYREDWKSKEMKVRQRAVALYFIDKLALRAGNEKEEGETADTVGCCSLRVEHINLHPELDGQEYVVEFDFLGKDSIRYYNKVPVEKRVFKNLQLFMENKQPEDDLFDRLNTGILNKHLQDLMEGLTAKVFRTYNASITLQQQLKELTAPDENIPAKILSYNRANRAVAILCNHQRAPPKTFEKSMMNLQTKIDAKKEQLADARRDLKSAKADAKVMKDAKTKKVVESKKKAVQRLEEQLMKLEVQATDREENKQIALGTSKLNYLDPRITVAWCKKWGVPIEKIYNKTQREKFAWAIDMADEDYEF
readout.name: IC50

Measured IC50 of Nc1ccc2c(c1)Oc1c(NCCN3CCOCC3)c(F)cc3c(=O)c(C(=O)O)cn-2c13 [Compound 11h] : 7.8 to 15.6 µM
